# MEASUREMENT TARGET: T1, Human TSLP (mammalian produced) (human, UniProt Q969D9 29-159)
# T1 construct: also called Hu TSLP; huTSLPwtpHF
# METHOD DESCRIPTION: SPR (Biacore 3000), antibody captured by anti-human Fc gamma, TSLP in solution, 25 C
PROPERTY NAME: pKd
Scale: pKd equals -log10([C]), with [C] in mol/L.

Examples from the recorded data:
BINDER | pKd
A3 IgG4 (antibody, V domains shown, also called L3H3) VH: QVQLVQSGAEVKKPGASVKVSCKASGYTFTDYYMYWVRQAPGQGPEWMGWINPNSGGTNYVQKFQGRVTMTRDTSISTAYMELSRMRSDDTAVYYCARDGGSSGWPLFAYWGLGTLVTVSS VL: QSVLTQPPSVSGAPGQRVTISCTGSSSNIGAGFDVHWYQQLPGTAPKLLIYDNNNRPSGVPDRFSGSKSGTSASLAITGLQAEDEADYYCQSYDSNLSGSIVVFGGGTKLTVL | 9.77
A2 IgG2 (antibody, V domains shown, also called L2H2) VH: EVQLVESGGVVVQPGGSLRLSCAASGFTFDDFTMHWVRQAPGKGLEWVSLISWDGGSTYYADSVKGRFTISRDNSKNSLYMQMNSLRTEDSALYYCARGPYYYFYGMDVWGQGTTVTVSS VL: SSELTQDPAVSVALGQTVRITCQGDSLRTYYASWYQQKPGQAPILVISDKNNRPSGIPDRFSGSSSGNTASLTITGAQAEDEADYYCNSRDSSDNHLVVFGGGTKLTVL | 9.80
A2 IgG1 (antibody, V domains shown, also called L2H2) VH: EVQLVESGGVVVQPGGSLRLSCAASGFTFDDFTMHWVRQAPGKGLEWVSLISWDGGSTYYADSVKGRFTISRDNSKNSLYMQMNSLRTEDSALYYCARGPYYYFYGMDVWGQGTTVTVSS VL: SSELTQDPAVSVALGQTVRITCQGDSLRTYYASWYQQKPGQAPILVISDKNNRPSGIPDRFSGSSSGNTASLTITGAQAEDEADYYCNSRDSSDNHLVVFGGGTKLTVL | 9.69

Next item in the queue.
Task: pKd for A4 IgG4 (antibody, V domains shown, also called L4H4) VH: QVQLVQSGAEVKKPGASVKVSCKASGYIFTGDYMHWVRQAPGQGLEWMGWINPNSGGTNHARKFQGRVTMTRDTSISTAYMELSRLRSDDTAVYYCVRDRGTSGWPLFDYWGQGTLVTVSS VL: QSVLTQPPSVSGAPGQRVTISCTGSSSNIGAGFDVHWYQLLPGTAPKLLIFDNNNRPSGVPDRFSGSKSGTSASLAITGLQAEDEADYYCQSYDSNLSGSIVVFGGGTKLTVL ?
Output: 9.47
